These data points were gathered from the supplement of paper PMC6555819.

test system: PPARg:RXRa 270nM:90nM, anti-RXR (NR concentration 270 nM, RXRa partner concentration 90 nM); assay: PBM binding z-score (relative to random genomic background probes); higher = stronger binding; sequences stand for … in GC…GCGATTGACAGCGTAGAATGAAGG
PBM binding z-score below 3 gives NO; PBM binding z-score at or above it gives YES.

Ask: # bool: PBM binding z-score of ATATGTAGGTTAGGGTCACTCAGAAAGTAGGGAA >= 3
Reply: YES

Ask: # bool: PBM binding z-score of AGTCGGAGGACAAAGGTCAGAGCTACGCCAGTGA >= 3
Reply: YES

Ask: # bool: PBM binding z-score of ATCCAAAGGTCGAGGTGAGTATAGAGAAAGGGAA >= 3
Reply: YES

Ask: # bool: PBM binding z-score of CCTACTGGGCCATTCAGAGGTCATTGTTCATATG >= 3
Reply: YES

Ask: # bool: PBM binding z-score of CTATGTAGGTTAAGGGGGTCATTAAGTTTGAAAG >= 3
Reply: YES

Ask: # bool: PBM binding z-score of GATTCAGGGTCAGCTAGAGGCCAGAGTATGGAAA >= 3
Reply: YES

Ask: # bool: PBM binding z-score of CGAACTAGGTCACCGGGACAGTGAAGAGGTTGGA >= 3
Reply: YES

Ask: # bool: PBM binding z-score of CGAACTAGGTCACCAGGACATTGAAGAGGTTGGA >= 3
Reply: YES

Ask: # bool: PBM binding z-score of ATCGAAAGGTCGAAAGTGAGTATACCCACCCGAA >= 3
Reply: NO

Ask: # bool: PBM binding z-score of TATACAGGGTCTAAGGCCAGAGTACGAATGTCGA >= 3
Reply: NO

Ask: # bool: PBM binding z-score of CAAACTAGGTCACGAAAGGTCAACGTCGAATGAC >= 3
Reply: YES

Ask: # bool: PBM binding z-score of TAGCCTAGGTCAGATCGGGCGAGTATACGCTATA >= 3
Reply: NO

Ask: # bool: PBM binding z-score of CATACAGGGTCCGCTAGGCCAGAGTAGGGACGGC >= 3
Reply: NO

Ask: # bool: PBM binding z-score of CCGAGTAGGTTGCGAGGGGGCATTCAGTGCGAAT >= 3
Reply: NO

Ask: # bool: PBM binding z-score of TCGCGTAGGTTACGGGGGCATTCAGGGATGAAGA >= 3
Reply: YES

Ask: # bool: PBM binding z-score of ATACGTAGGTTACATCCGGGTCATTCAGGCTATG >= 3
Reply: NO

Ask: # bool: PBM binding z-score of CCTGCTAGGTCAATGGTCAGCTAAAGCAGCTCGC >= 3
Reply: YES

Ask: # bool: PBM binding z-score of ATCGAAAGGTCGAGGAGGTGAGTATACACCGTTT >= 3
Reply: YES

Ask: # bool: PBM binding z-score of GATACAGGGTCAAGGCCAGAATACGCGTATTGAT >= 3
Reply: YES

Ask: # bool: PBM binding z-score of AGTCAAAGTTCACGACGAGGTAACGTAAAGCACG >= 3
Reply: YES

Ask: # bool: PBM binding z-score of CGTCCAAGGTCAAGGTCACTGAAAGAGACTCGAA >= 3
Reply: YES

Ask: # bool: PBM binding z-score of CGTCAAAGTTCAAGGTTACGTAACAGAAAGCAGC >= 3
Reply: YES

Ask: # bool: PBM binding z-score of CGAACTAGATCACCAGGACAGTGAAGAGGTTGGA >= 3
Reply: NO

Ask: # bool: PBM binding z-score of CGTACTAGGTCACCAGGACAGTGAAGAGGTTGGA >= 3
Reply: YES

Ask: # bool: PBM binding z-score of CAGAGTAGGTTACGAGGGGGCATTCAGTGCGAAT >= 3
Reply: YES

---

system: LXRa:RXRa (NR concentration 270 nM, RXRa partner concentration 90 nM); experiment: PBM binding z-score (relative to random genomic background probes); higher = stronger binding; sequences stand for … in GC…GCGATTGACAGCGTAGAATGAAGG
Answer each item with its documented PBM binding z-score.
Give the figure by itself; no unit, no explanation.

Ask: Answer with the recorded PBM binding z-score for the sequence listed here: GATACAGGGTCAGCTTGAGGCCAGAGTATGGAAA
Reply: 2.37

Ask: Answer with the recorded PBM binding z-score for the sequence listed here: CGTCTAAGGTCAAAGGTCAGTGAAGAGATGACGG
Reply: 7.27

Ask: Answer with the recorded PBM binding z-score for the sequence listed here: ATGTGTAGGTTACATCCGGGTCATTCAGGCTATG
Reply: 4.19

Ask: Answer with the recorded PBM binding z-score for the sequence listed here: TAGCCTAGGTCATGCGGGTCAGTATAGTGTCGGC
Reply: 3.93

Ask: Answer with the recorded PBM binding z-score for the sequence listed here: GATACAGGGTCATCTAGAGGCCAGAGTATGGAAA
Reply: 5.02

Ask: Answer with the recorded PBM binding z-score for the sequence listed here: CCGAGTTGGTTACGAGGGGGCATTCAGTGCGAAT
Reply: 3.69

Ask: Answer with the recorded PBM binding z-score for the sequence listed here: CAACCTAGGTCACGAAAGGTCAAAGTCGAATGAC
Reply: 8.28

Ask: Answer with the recorded PBM binding z-score for the sequence listed here: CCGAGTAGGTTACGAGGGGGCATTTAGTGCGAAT
Reply: 7.16

Ask: Answer with the recorded PBM binding z-score for the sequence listed here: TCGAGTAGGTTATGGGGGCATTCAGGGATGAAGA
Reply: 2.24

Ask: Answer with the recorded PBM binding z-score for the sequence listed here: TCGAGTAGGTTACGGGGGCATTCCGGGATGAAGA
Reply: 2.91

Ask: Answer with the recorded PBM binding z-score for the sequence listed here: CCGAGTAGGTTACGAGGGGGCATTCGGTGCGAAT
Reply: 7.08

Ask: Answer with the recorded PBM binding z-score for the sequence listed here: AGTAGCAGGCCAAGGGTCACTCAAGATTAGTCCG
Reply: 2.53

---

Answer each item with its documented PBM binding z-score.
test system: VDR:RXRa (NR concentration 270 nM, RXRa partner concentration 90 nM); test: PBM binding z-score (relative to random genomic background probes); higher = stronger binding; sequences stand for … in GC…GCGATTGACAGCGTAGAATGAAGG
Give the figure by itself; no unit, no explanation.

Ask: Under VDR:RXRa (NR concentration 270 nM, RXRa partner concentration 90 nM): report PBM binding z-score of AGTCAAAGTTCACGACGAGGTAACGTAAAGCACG .
Reply: 5.05

Ask: Under VDR:RXRa (NR concentration 270 nM, RXRa partner concentration 90 nM): report PBM binding z-score of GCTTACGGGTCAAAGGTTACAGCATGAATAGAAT .
Reply: 5.69

Ask: Under VDR:RXRa (NR concentration 270 nM, RXRa partner concentration 90 nM): report PBM binding z-score of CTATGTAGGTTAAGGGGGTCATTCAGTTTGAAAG .
Reply: 7.57

Ask: Under VDR:RXRa (NR concentration 270 nM, RXRa partner concentration 90 nM): report PBM binding z-score of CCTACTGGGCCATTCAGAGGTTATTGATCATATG .
Reply: 0.462

Ask: Under VDR:RXRa (NR concentration 270 nM, RXRa partner concentration 90 nM): report PBM binding z-score of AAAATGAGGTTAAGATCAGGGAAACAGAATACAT .
Reply: 1.35

Ask: Under VDR:RXRa (NR concentration 270 nM, RXRa partner concentration 90 nM): report PBM binding z-score of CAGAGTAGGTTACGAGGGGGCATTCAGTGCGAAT .
Reply: 5.33

Ask: Under VDR:RXRa (NR concentration 270 nM, RXRa partner concentration 90 nM): report PBM binding z-score of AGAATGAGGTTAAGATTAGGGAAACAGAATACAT .
Reply: 1.36

Ask: Under VDR:RXRa (NR concentration 270 nM, RXRa partner concentration 90 nM): report PBM binding z-score of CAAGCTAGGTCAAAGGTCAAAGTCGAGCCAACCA .
Reply: 6.9

Ask: Under VDR:RXRa (NR concentration 270 nM, RXRa partner concentration 90 nM): report PBM binding z-score of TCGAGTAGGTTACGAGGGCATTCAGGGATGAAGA .
Reply: 2.32

Ask: Under VDR:RXRa (NR concentration 270 nM, RXRa partner concentration 90 nM): report PBM binding z-score of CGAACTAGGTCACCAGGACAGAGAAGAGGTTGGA .
Reply: 2.04

Ask: Under VDR:RXRa (NR concentration 270 nM, RXRa partner concentration 90 nM): report PBM binding z-score of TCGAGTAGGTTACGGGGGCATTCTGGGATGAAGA .
Reply: 3.65

Ask: Under VDR:RXRa (NR concentration 270 nM, RXRa partner concentration 90 nM): report PBM binding z-score of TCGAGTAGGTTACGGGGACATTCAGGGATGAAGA .
Reply: 1.27
